target: UniProtKB P11229; experiment: mAChR M1 cell-based functional assay (calcium mobilization, antagonist mode); details: activity remaining at top dose of 30 μM test compound, as percentage of the response to an approx. EC80 concentration of ACh
measurement_name: Remaining Activity (%)

The following compounds have reported results that may help.
>  <compound>
Cc1ccnc(S(=O)(=O)N2CC(C(=O)N3CCN(c4ccncc4)CC3)C2)c1

>  <Remaining Activity (%)>
41%

$$$$
>  <compound>
Cn1cnc(S(=O)(=O)N2CC(C(=O)N3CCN(c4ccncc4)CC3)C2)c1

>  <Remaining Activity (%)>
≧80%

$$$$
>  <compound>
O=C(C1CN(S(=O)(=O)c2cccc(-n3cnnn3)c2)C1)N1CCN(c2ccncc2)CC1

>  <Remaining Activity (%)>
≧80%

$$$$
>  <compound>
O=C(C1CN(S(=O)(=O)c2cccc3nonc23)C1)N1CCN(c2ccccn2)CC1

>  <Remaining Activity (%)>
11%

$$$$
>  <compound>
O=C(C1CN(S(=O)(=O)c2ccc3[nH]c(=O)oc3c2)C1)N1CCN(c2ccncc2)CC1

>  <Remaining Activity (%)>
≧80%

$$$$
>  <compound>
Cn1nccc1-c1cccc(S(=O)(=O)N2CC(C(=O)N3CCN(c4ccncc4)CC3)C2)c1

>  <Remaining Activity (%)>
≧80%

$$$$
>  <compound>
CC(C)S(=O)(=O)N1CC(C(=O)N2CCN(c3ccncc3)CC2)C1

>  <Remaining Activity (%)>
59%

$$$$
>  <compound>
O=C(C1CN(S(=O)(=O)c2cccc3c2OCCO3)C1)N1CCN(c2ccncc2)CC1

>  <Remaining Activity (%)>
27%

$$$$
>  <compound>
O=C(C1CN(S(=O)(=O)c2ccc3ccccc3c2)C1)N1CCN(c2ccncc2)CC1

>  <Remaining Activity (%)>
≧80%

$$$$
>  <compound>
O=C(C1CN(S(=O)(=O)c2cccc(Cl)c2)C1)N1CCN(c2ccncc2)CC1

>  <Remaining Activity (%)>
27%

$$$$

Problem: Note down Remaining Activity (%) recorded for O=C(NC1CCN(c2ccccc2)C1)C1CN(S(=O)(=O)c2cccc3cnccc23)C1 (stereo not drawn)
Result: ≧80%

Problem: Tell me its Remaining Activity (%) given `O=C(C1CN(S(=O)(=O)c2ccc(N3CCOCC3)nc2)C1)N1CCN(c2ccncc2)CC1` as the entry.
Result: ≧80%

Problem: Assign Remaining Activity (%) to the following record: `O=C(C1CN(S(=O)(=O)c2ccc(OC(F)F)cc2)C1)N1CCN(c2ccncc2)CC1`
Result: ≧80%

Problem: Provide one value: measured Remaining Activity (%) of O=C(C1CN(S(=O)(=O)C2CCCCC2)C1)N1CC2CN(c3ccncc3)CC2C1 (stereo not drawn)
Result: ≧80%

Problem: Identify Remaining Activity (%) associated with the compound `Cn1ccnc1N1CCN(C(=O)C2CN(S(=O)(=O)c3cccc4nonc34)C2)CC1`
Result: ≧80%

Problem: Supply recorded Remaining Activity (%) for CC(C)S(=O)(=O)N1CC(C(=O)N2CC3CN(c4ccncc4)CC3C2)C1 (stereo not drawn) here.
Result: ≧80%

Problem: Answer with reported Remaining Activity (%) of `CN1C(=O)Cc2cc(S(=O)(=O)N3CC(C(=O)N4CCN(c5ccncc5)CC4)C3)ccc21`
Result: 48%

Problem: Hello, please tell me recorded Remaining Activity (%) for this one: `O=C(C1CN(S(=O)(=O)c2ccc3[nH]c(=O)sc3c2)C1)N1CCN(c2ccncc2)CC1`
Result: ≧80%
